- ASSAY_DETAILS: HUVEC growth inhibition – cell-based, human, primary screen (AID 575);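 also: 100% = median of untreated cell wells with 0.1% DMSO on each plate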
- MEASUREMENT_CONDITIONS: HUVEC proliferation, CellTiter-Glo luminescence, 72 h; at 10 µM
Calls of active or inactive are those of the source.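 The calls were made as follows: active = viability at or below 30% in both replicate assays; inconclusive = viability at or below 30% in just one of the two assays; inactive = the rest.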
Outcomes: active, inactive

Cc1ccccc1-c1nc(CS(=O)(=O)CC(=O)N(C)C2CCCCC2)c(C)o1 ... inactive
O=C(CSc1nc2ccccc2[nH]1)N1CCCCC1 ... inactive
CCc1nc(N[C@@H](Cc2c[nH]c3ccccc23)C(=O)O)c2oc3ccccc3c2n1 ... inactive
CCCCc1c(O)nc(SCC(=O)Nc2ccc3c(c2)CCC3)[nH]c1=O ... inactive
Cc1ccccc1OCCCN1C(=O)C(=O)c2cccc(C)c21 ... inactive
Cc1nnc(NC(=O)CCC(=O)N2CCC(C)CC2)s1 ... inactive
CCN(CC)CCCN1C(=O)C(=O)/C(=C(/O)c2ccc3c(c2)OCO3)C1c1ccccn1 (stereo not drawn) ... inactive
CCCOc1ccccc1NC(=O)c1ccc(N)cc1 ... inactive
COC(=O)[C@H](CCSC)NC(=O)Nc1cc(C)ccc1C ... inactive
COc1cc(C(=O)N(C)c2nnc(-c3cccnc3)s2)cc(OC)c1OC ... inactive
Cc1ccccc1OCC(O)CN (stereo not drawn) ... active
COc1cccc(C2CC(c3ccccc3)n3ncnc3N2)c1 (stereo not drawn) ... inactive
Cc1c(NC(=O)C2CCCNC2=O)c(=O)n(-c2ccccc2)n1C (stereo not drawn) ... inactive

###

- ASSAY_DETAILS: reversal of MRP1-mediated doxorubicin resistance, pilot screen, H69AR cells, doxorubicin co-treatment (AID 601)
- MEASUREMENT_CONDITIONS: H69AR cells + 2 uM doxorubicin, CellTiter-Glo, 72 h; at 10 µM; stronger effect = higher value
Calls of active or inactive are those of the source.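 Rule for the calls: active = viability loss from added drug above about 55%, and viability with drug at most 40%, in both replicates (limit read from the data, passing the limit was not always enough); inconclusive = both conditions met in only one replicate; inactive = neither replicate meets both conditions.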
READOUT_NAME: differential viability (reversal)

COc1ccccc1OCCCn1c(=O)oc2ccccc21 ... 11.9% (inactive)
COc1cccc(NC(=O)c2ccccc2NS(C)(=O)=O)c1 ... 4.45% (inactive)
CCCCC[C@H](O)/C=C/C1=C(CCCCCCC(=O)O)C(=O)CC1 ... -9.49% (inactive)

###

- ASSAY_DETAILS: growth suppression of yeast trafficking mutant, preliminary HTS, modulators of trafficking downstream of Golgi apparatus project, 1536-format plate, OD 615 nm (AID 637)
- MEASUREMENT_CONDITIONS: yeast transport mutant growth, absorbance 615 nm, 18 h; stronger effect = higher value
READOUT_NAME: inhibition (%)

CS(=O)(=O)N(Cc1ccccc1)c1ccc(C(=O)N2CCOCC2)cc1 ... -5.57
Cc1ccc2[nH]c(=O)c(C(c3nnnn3CCc3ccccc3)N3CCOCC3)cc2c1 (stereo not drawn) ... -0.49
CCCc1ccccc1OCCNC(C)=O ... 0
c1ccc(OCCCn2nnc(-c3ccncc3)n2)cc1 ... 4.73
O=C(CSc1nc2cc(S(=O)(=O)N3CCOCC3)ccc2o1)NC1CCCc2ccccc21 (stereo not drawn) ... -5.82
C/C(=C\C(=O)c1ccc(F)cc1)Nc1ccc(N2CCOCC2)cc1 ... -0.65
CN(c1ccc(OCc2nnc(-c3ccccc3)o2)cc1)S(=O)(=O)c1ccccc1 ... -5.45
O=C(CSc1nc2c(sc3ccccc32)c(=O)n1Cc1ccco1)NCC1CCCO1 (stereo not drawn) ... 5.71

###

viability values by entry
- ASSAY_DETAILS: reversal of MRP1-mediated doxorubicin resistance, pilot screen, H69AR cells, doxorubicin co-treatment (AID 601)
- MEASUREMENT_CONDITIONS: H69AR cells, CellTiter-Glo, 72 h; compound alone cytotoxicity; at 10 µM
READOUT_NAME: viability (%)

COCCN(CCOC)C(=O)c1sc2nc(-c3ccccc3)cn2c1C ... 93.1
CCN(CC)c1ccc2c(c1)CCCN2 ... 43.4
CCS(=O)(=O)N1CCC(C(=O)NC2CCCCC2)CC1 ... 97.4
N#Cc1cc2ccc(N3CCOCC3)cc2cc1C#N ... 43.4

###

- ASSAY_DETAILS: 384-well plate pilot, post-Golgi transport modulator project, inhibition of yeast transport mutant growth (AID 636)
- MEASUREMENT_CONDITIONS: absorbance 615 nm, about 18 h, stronger effect = higher value
Peptide text beside a SMILES is read from it. * marks the point of attachment. Boc = CC(C)(C)OC(=O)*
READOUT_NAME: inhibition (%)

COc1cccc(OCCOCCN(C)CCO)c1 ... -4.93
CC(NC(=O)NCCCC(=O)O)(C(F)(F)F)C(F)(F)F ... -7.53
CCC(C)n1ncn(-c2ccc(N3CCN(c4ccc(OCC5COC(Cn6cncn6)(c6ccc(Cl)cc6Cl)O5)cc4)CC3)cc2)c1=O (stereo not drawn) ... 100
COCCn1nnnc1C(C(C)C)N(Cc1cccnc1)Cc1ccccc1Cl (stereo not drawn) ... -2.34
CCCC(=O)N1CCN(c2ccc(NC(=O)c3ccc(Br)o3)cc2)CC1 ... 1.58
N=c1sc2ccccc2n1-c1ccccc1 ... -3.12
COC(=O)Cn1cnc2sc(C)c(S(=O)(=O)N3CCC(C)CC3)c2c1=O ... -1.64
CCn1cc(/C=C(/C#N)S(=O)(=O)c2ccccc2)cn1 ... -7.24
O=C(CSc1nnnn1C1CCCC1)NCc1ccc2c(c1)OCO2 ... -6.22
O=C(Nc1ccon1)c1cc(-c2ccccc2)nc2ccccc12 ... -5.95
c1ccc2c(-c3nc(C4CCCCC4)no3)cc(-c3ccncc3)nc2c1 ... 45.3
COc1cccc(CN=CC2=C(O)CC(C)(C)CC2=O)c1OC ... -1.69
CC(C)CC(NC(=O)OC(C)(C)C)C(=O)NC(C(=O)N1CCCC1C(N)=O)C(C)C (stereo not drawn) (Boc-Leu-Val-Pro-NH2; configuration not given here) ... 0.78
CCC1(C(=O)OC)NC(c2cccc(F)c2)C2C(=O)N(C)C(=O)C21 (stereo not drawn) ... -6.08
Cc1nc2ccccn2c(=O)c1CCN1CCC(C(=O)c2ccc(F)cc2)CC1 ... 1.69
O=C(O)Cn1nc2ccccc2n1 ... -4
O=C(NCc1ccco1)c1cc2sccc2n1Cc1ccccc1 ... 3.01
CCc1nnc(SCC(=O)NC2CCCCC2)nc1CC ... -4.29
CCC1Cc2c(nc3c4c(nc(N5CCOCC5)c(C#N)c24)NC(C)=N3)O1 (stereo not drawn) ... -2.99
CCOC(=O)c1[nH]c(C)c(C(=O)Nc2ccccc2F)c1C ... -4.47
c1ccc(Cn2ncc3c2ncn2c(-c4ccncc4)nnc32)cc1 ... -8.77
COc1ccccc1-c1noc(-c2ccco2)n1 ... 0
Cc1csc(NC(=O)c2ccoc2C)n1 ... -4.66
COC(=O)CSc1nnc(-c2ccc(OC)cc2OC)o1 ... -2.67
CC(C)[N+]1(C)[C@@H]2CC[C@H]1CC(OC(=O)C(CO)c1ccccc1)C2 (stereo partly drawn) ... -6.36
CCOc1ccccc1NC(=O)CN(C)S(=O)(=O)c1cccc2nsnc12 ... -6.76
CN1CCN(C(=O)CN(Cc2ccc(Cl)cc2)S(C)(=O)=O)CC1 ... -1.45
O=C(Nc1cc(C(F)(F)F)ccc1N1CCCC1)c1ccc2c(c1)OCO2 ... -6.99
CN1CCN(C(=O)NC2CCCN2S(=O)(=O)c2ccc(Cl)cc2)CC1 (stereo not drawn) ... -1.1
CCCOc1ccccc1NC(=O)c1ccc(N)cc1 ... -5.53
COc1ccc(-c2nc(C(N)=O)c3[nH]c(=O)n(-c4cccc(Cl)c4)c3n2)cc1OC ... 6.23
CCNC(=O)CC1C(=O)N(c2ccccc2)C(=O)N1CCC(C)C (stereo not drawn) ... -0.78
Cc1cc(C(=O)Nc2cc(C)n(Cc3ccc(Cl)cc3)n2)no1 ... 1.97
COCCNC(=O)C(c1cccs1)N(C(=O)Cn1nnc2ccccc21)c1ccccc1 (stereo not drawn) ... -2.34
CCOC(=O)C1CCN(S(=O)(=O)c2cccc(-c3csc(C)n3)c2)CC1 ... -5.2
COC(=O)c1[nH]c(C)c(/C(O)=C2\C(=O)C(=O)N(CCN3CCOCC3)C2c2cccs2)c1C (stereo not drawn) ... -2.3
CCN(CC)C(=O)c1ccc(O)c(OC)c1 ... -4.94
Cc1cc(C)cc(NC(=O)CN(C)S(=O)(=O)c2cnc[nH]2)c1 ... -2.13

###

- ASSAY_DETAILS: HUVEC growth inhibition – cell-based, human, primary screen (AID 575);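 also: 100% = median of untreated cell wells with 0.1% DMSO on each plate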
- MEASUREMENT_CONDITIONS: HUVEC proliferation, CellTiter-Glo luminescence, 72 h; at 10 µM; stronger effect = lower value
READOUT_NAME: viability (%)

COc1cccc(NC(=O)CSc2nnnn2C(C)C)c1 ... 97.9
CCOc1nc(NCCC2=CCCCC2)nc(N2CCOCC2)n1 ... 95.8
COc1ccc(OC)c(-c2cc(C(=O)NCc3cccs3)no2)c1 ... 76.2
Cc1ccc(C2=N/C(=C/N3CCOCC3)C(=O)O2)cc1 ... 82.5
